Record form. Attribute: TGI. Fill in for each entry.
System: EKVX NSCLC
Test: NCI tumour cell line growth inhibition, 48 h

For EKVX NSCLC, provide TGI of O/N=C1/C(=C/c2ccccc2)CCCC1C(NO)c1ccccc1 (stereo not given) please.
> 100 µM

For EKVX NSCLC, provide TGI of C=C(C)C1CCC2(CO)C(O)CC3(C)C(CCC4C5(C)CCC(O)C(C)(C)C5CCC43C)C12 (stereo not given) please.
32.6 µM

For EKVX NSCLC, provide TGI of `CCCCCC/C=C\CCCCCCCCCc1c(O)c(OC)cc(O)c1CN(C)C` please.
23.6 µM

For EKVX NSCLC, provide TGI of `COC(=O)C1=C2CO[C@@H]3C[C@H]4C(C)(C)CCC[C@]4(C)C(=CC1)[C@]23C` please.
> 100 µM

For EKVX NSCLC, provide TGI of `CN(C)CCN1C(=O)c2cccc3c(-c4ccc5ncn(C6CCCCC6)c5c4)ccc(c23)C1=O` please.
7.73 µM

For EKVX NSCLC, provide TGI of O=C(Nc1cc([N+](=O)[O-])cc([N+](=O)[O-])c1)OC1C2CCC1C1OC1C2 (stereo not given) please.
> 50 µM

For EKVX NSCLC, provide TGI of `CCCCCC/C=C/CCCCCCCc1cccc(O)c1C(=O)O` please.
> 100 µM

For EKVX NSCLC, provide TGI of `Cc1cc(O)c(/C=N/C(=O)NN)c(=O)o1` please.
> 100 µM

For EKVX NSCLC, provide TGI of `C[n+]1ccc2[nH]c3ccccc3c2c1` please.
> 100 µM

For EKVX NSCLC, provide TGI of CC(=O)C1C(=O)C(=O)N(c2ccc([N+](=O)[O-])cc2Cl)C1=O (stereo not given) please.
> 100 µM

* * *

Record form. Attribute: TGI. Fill in for each entry.
Test system: SNB-19 CNS
Assay: NCI tumour cell line growth inhibition, 48 h

Endpoint output: TGI of `CN(C)CCC(=O)NCc1c2nc3ccccc3nc2n2ccccc12` . Value?
> 100 µM

Endpoint output: TGI of CC(Nc1cc(=O)n(C)c(=O)[nH]1)c1ccccc1 (centres undefined) . Value?
> 100 µM

Endpoint output: TGI of `N=C(N)Cn1cnc2ccccc21` . Value?
> 100 µM

Endpoint output: TGI of OC1NC2CC3NC(O)C(O)NC3CC2NC1O (centres undefined) . Value?
> 100 µM

Endpoint output: TGI of `c1cc(-c2cnn3nc(N4CCOCC4)ccc23)nc(NC2CC2)n1` . Value?
> 25 µM

Endpoint output: TGI of `Clc1ccc2c(NCCN3CCN(c4ccnc(N5CCCC5)n4)CC3)ccnc2c1` . Value?
28.7 µM

Endpoint output: TGI of `O=c1[nH]c2cc([N+](=O)[O-])c(N(CCO)CCO)c([N+](=O)[O-])c2[nH]1` . Value?
> 100 µM

Endpoint output: TGI of `Cc1cc(C)c(N)c(C)c1N` . Value?
> 100 µM

Endpoint output: TGI of `Cc1cc(O)c(/C=N/C(=O)NN)c(=O)o1` . Value?
> 100 µM

Endpoint output: TGI of `CN(C)Cc1cc(C(=O)/C=C/c2c(F)cccc2Cl)cc(CN(C)C)c1O` . Value?
61.5 µM

Endpoint output: TGI of `O=C(/C=C/c1ccsc1)c1ccc(Cl)s1` . Value?
> 100 µM

Endpoint output: TGI of `O=C(/C=C\c1ccc(OCCCCCC[P+](c2ccccc2)(c2ccccc2)c2ccccc2)cc1)c1ccc2c(c1)OCCO2` . Value?
1.74 µM

Endpoint output: TGI of `COc1cccc2cc(N(C)c3nc(C)nc4ccsc34)ccc12` . Value?
22.9 µM

Endpoint output: TGI of Cc1ccc2oc(=O)cc(C3c4ccc([nH]4)C(c4cc(=O)oc5ccc(C)cc45)c4ccc([nH]4)C(c4cc(=O)oc5ccc(C)cc45)c4ccc([nH]4)C(c4cc(=O)oc5ccc(C)cc45)c4ccc3[nH]4)c2c1 (centres undefined) . Value?
3.45 µM

Endpoint output: TGI of CCC(C)c1cnc(CC(C)C)c(=O)[nH]1 (centres undefined) . Value?
> 100 µM

Endpoint output: TGI of CC1(C)CC(O)CCCCCCOc2c(CN)cccc2NC(=O)c2nc(cnc2N)-c2ccc(cc2)S1(=O)=O (centres undefined) . Value?
4.46 µM

Endpoint output: TGI of `CC1(C)N=C(/C(C#N)=[N+](/[O-])C(=O)c2ccccc2)C(C)(C)N1O` . Value?
> 100 µM

Endpoint output: TGI of `CNc1nc(=O)c(C#N)c(-c2ccc(C)cc2)s1` . Value?
> 100 µM

Endpoint output: TGI of OC(C1CCCC1=N/N=C1/CCCC1C(O)(C(F)(F)Cl)C(F)(F)Cl)(C(F)(F)Cl)C(F)(F)Cl (centres undefined) . Value?
> 10 µM

Endpoint output: TGI of `COc1ccc(-c2cc(-c3ccc(Nc4ccnc5cc(C(F)(F)F)ccc45)cc3)[nH]c(=O)c2C#N)cc1` . Value?
56.7 µM

Endpoint output: TGI of COC(=O)C1CCC(N2C(=O)CCC2C(=O)OC)=N1 (centres undefined) . Value?
> 100 µM

Endpoint output: TGI of `CCCCCCCCCCCCCCCCCCNC(=S)/N=C/c1c(O)cc(C)oc1=O` . Value?
52.1 µM

Endpoint output: TGI of `COc1ccc2c(c1)Cc1c-2[nH]c2cc3c(cc2c1=O)OCO3` . Value?
> 100 µM

Endpoint output: TGI of CC[S+](C)c1ccc(-c2c3nc(c(-c4ccc([S+](C)CC)cc4)c4ccc([nH]4)c(-c4ccc([S+](C)CC)cc4)c4nc(c(-c5ccc([S+](C)CC)cc5)c5ccc2[nH]5)C=C4)C=C3)cc1 (centres undefined) . Value?
> 100 µM

Just for reference, PubChem BioAssay (NCI) is where these values come from.
